Tested on: Escherichia coli TOP10;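 note: peptides expressed intracellularly from a pBAD plasmid library in pooled LB shake-flask culture, induced with 0.3% L-arabinose, DNA abundance read by NGS, three biological replicates, DESeq2 with apeglm shrinkage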
Assay: shrunken log2 fold change of peptide-encoding DNA abundance (4.5 h post-induction vs induction); higher = less antimicrobial activity (less host growth inhibition)
Conditions: time post-induction: 4.5 h; library: site-saturation at positions 5, 18, 19, 20
experimental-readout: shrunken log2 fold change
Just the number.

stdin: Give its shrunken log2 fold change value. Item: RRIRVRPPRLPRPRPRPIVCPRP
stdout: -0.0744

stdin: What value of measured shrunken log2 fold change is listed for RRIRDRPPRLPRPRPRPWVKPRP ?
stdout: 0.0766

stdin: I have this sequence here, RRIRERPPRLPRPRPRPMTKPRP , and I need its recorded shrunken log2 fold change.
stdout: -0.0224

stdin: // returns reported shrunken log2 fold change for input RRIRYRPPRLPRPRPRPHVRPRP
stdout: -0.202

stdin: Which shrunken log2 fold change is reported for this sequence? RRIRARPPRLPRPRPRPNYCPRP
stdout: -0.223

stdin: Entry RRIRNRPPRLPRPRPRPFYFPRP : reported shrunken log2 fold change = ?
stdout: -0.718

stdin: Fill in the blank: the reported shrunken log2 fold change of RRIRLRPPRLPRPRPRPDHDPRP is ____.
stdout: -0.0947

stdin: Look at this sequence and give its reported shrunken log2 fold change. RRIRMRPPRLPRPRPRPPYNPRP
stdout: -0.575
